molecular target: T1, Insulin receptor prepared according to Bass et al., 1996 (human, UniProt P06213 28-956, limits assumed); test: phage ELISA: IR ratio over background divided by IGF-1R ratio over background
T1 construct: extracellular domain; also called IR; soluble IR (Bass construct); not shown: immunoglobulin constant domains (Fc or lambda) of the Bass construct
# Lookup of reported Comparison IR/IGF-1R keyed by entry

Here is how some binders turned out for Comparison IR/IGF-1R.
>  <BINDER>
DYKDSSETAKMVTGTRDDPFYHKLSELVQGSAAAGAP (not shown: rest of the phage display fusion (remainder of E-Tag, phage coat protein)) [B6Hα-2-D8-IR]

>  <RESULT>
0.3 ratio

$$$$
>  <BINDER>
DYKDGCITAENGAGDPFYHKLSELGGCSAAAGAP (not shown: rest of the phage display fusion (remainder of E-Tag, phage coat protein)) [B6Hα-1-B3-IR]

>  <RESULT>
0.3 ratio

$$$$
>  <BINDER>
DYKDGHYFGSFYDAIDQLVAGMLPGAAAGAP (not shown: rest of the phage display fusion (remainder of E-Tag, phage coat protein)) [20E2A-3-A3-IGFR]

>  <RESULT>
0.5 ratio

$$$$
>  <BINDER>
DYKDVRGFQGGTVWPGYEWLRNAAAAAGAP (not shown: rest of the phage display fusion (remainder of E-Tag, phage coat protein)) [R20β-4-E8-IR]

>  <RESULT>
0.1 ratio

$$$$

Measured Comparison IR/IGF-1R of DYKDCGAKMTGTPNDPFYHKLSELLQRGAAAGAP (not shown: rest of the phage display fusion (remainder of E-Tag, phage coat protein)) [B6Hα-3-E6-IR] : 0.5 ratio

// field: Comparison IR/IGF-1R; key: DYKDAETSAQVGWQRLWSVWPGDHWSTLDPFYHKLSELLRESGAAAAGAP (not shown: rest of the phage display fusion (remainder of E-Tag, phage coat protein)) [B6L-3-G5-IR] ; value = 0.7 ratio

// data source = patent US20070265189A1
